Biological target: UniProt P41597
Experiment: Displacement of [125I]MCP-1 from human CCR2b expressed in human monocyte cells
Type: cell-based
pIC50: −log10 of the molar value.
recorded endpoint: pIC50

{"columns": ["compound", "quantitative result"],
 "data": [
  ["CC(C)[C@H](CCN1CCC2(C=Cc3ccccc32)CC1)C(=O)NCc1cc(C(F)(F)F)cc(C(F)(F)F)c1", 7.33],
  ["C[C@H]1CN(CC[C@H](CC2CC2)C(=O)NCc2cc(C(F)(F)F)cc(C(F)(F)F)c2)CC[C@@]12C=Cc1ccccc12", 8.05],
  ["O=C(NCc1cc(C(F)(F)F)cc(C(F)(F)F)c1)C(CCN1CCC2(C=Cc3ccccc32)CC1)C1CC1 (stereo not drawn)", 7.42],
  ["C[C@H]1CN(CCCC(=O)NCc2cc(C(F)(F)F)cc(C(F)(F)F)c2)CC[C@@]12C=Cc1ccccc12", 7.03],
  ["O=C(NCc1cc(C(F)(F)F)cc(C(F)(F)F)c1)C(CCN1CCC2(C=Cc3ccccc32)CC1)Cc1ccccc1 (stereo not drawn)", 6.63],
  ["C=CC[C@H](CCN1CCC2(C=Cc3ccccc32)CC1)C(=O)NCc1cc(C(F)(F)F)cc(C(F)(F)F)c1", 7.43],
  ["CCC[C@H](CCN1CCC(c2ccccc2)CC1)C(=O)NCc1cc(C(F)(F)F)cc(C(F)(F)F)c1", 7.38],
  ["O=C(NCc1cc(C(F)(F)F)cc(C(F)(F)F)c1)[C@@H](CCN1CCC(c2ccc(F)cc2)CC1)C1CC1", 7.14],
  ["C[C@H](CCN1CCC2(C=Cc3ccccc32)CC1)C(=O)NCc1cc(C(F)(F)F)cc(C(F)(F)F)c1", 7.43],
  ["CC(O)C(CCN1CCC(c2ccc(F)cc2)CC1)C(=O)NCc1cc(C(F)(F)F)cc(C(F)(F)F)c1 (stereo not drawn)", 6.34],
  ["O=C(NCc1cc(C(F)(F)F)cc(C(F)(F)F)c1)[C@@H](CCN1CCC2(C=Cc3ccccc32)CC1)C1CC1", 7.82],
  ["C[C@H]1CN(CC[C@H](C(=O)NCc2cc(C(F)(F)F)cc(C(F)(F)F)c2)C2CC2)CC[C@@]12C=Cc1ccccc12", 8.40],
  ["CC(O)C(CCN1CC[C@@]2(C=Cc3ccccc32)[C@@H](C)C1)C(=O)NCc1cc(C(F)(F)F)cc(C(F)(F)F)c1 (stereo partly drawn)", 7.32]
]}

* * *

Test: Half life in Sprague-Dawley rat at 1 mg/kg, iv
Format: ADME, organism-based
Parameters: dose 1 mg/kg, route intravenous
Settings: in vivo

{"columns": ["record smiles", "half-life / h"],
 "data": [
  ["C[C@H]1CN(CC[C@H](C(=O)NCc2cc(C(F)(F)F)cc(C(F)(F)F)c2)C2CC2)CC[C@@]12C=Cc1ccccc12", 4.11]
]}

* * *

Biological target: C-C chemokine receptor type 2 (Homo sapiens)
Sequence (P41597 whole entry): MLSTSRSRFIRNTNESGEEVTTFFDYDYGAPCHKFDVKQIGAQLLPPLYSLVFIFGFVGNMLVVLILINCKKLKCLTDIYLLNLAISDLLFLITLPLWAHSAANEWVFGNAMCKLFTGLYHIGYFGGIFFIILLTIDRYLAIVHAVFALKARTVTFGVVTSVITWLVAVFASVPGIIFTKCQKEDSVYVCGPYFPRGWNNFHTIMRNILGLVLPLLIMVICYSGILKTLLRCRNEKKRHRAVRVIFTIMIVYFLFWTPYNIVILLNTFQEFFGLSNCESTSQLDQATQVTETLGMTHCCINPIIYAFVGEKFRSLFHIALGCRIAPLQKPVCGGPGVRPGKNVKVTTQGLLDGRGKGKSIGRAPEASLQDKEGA
Assay: Displacement of [125I]MCP-1 from human CCR2b expressed in CHO cells
Assay type: cell-based

{"columns": ["molecule", "unit annotation", "IC50"],
 "data": [
  ["CS(=O)(=O)N1CCCC(C(CCN2CCC3(C=Cc4ccccc43)CC2)C(=O)NCc2cc(C(F)(F)F)cc(C(F)(F)F)c2)C1 (stereo not drawn)", "nM", 783],
  ["C[C@H]1CN(CC[C@@H](C(=O)NCc2cc(C(F)(F)F)cc(C(F)(F)F)c2)C2CC2)CC[C@@]12C=Cc1ccccc12", "nM", 80],
  ["O=C(NCc1cc(C(F)(F)F)cc(C(F)(F)F)c1)C(CCN1CCC2(C=Cc3ccccc32)CC1)C1CCCCC1 (stereo not drawn)", "nM", 160]
]}
